All figures here come from patent US8288383B2.

- study-system: CYP2D6 (Homo sapiens, UniProt P10635)
- Sequence (P10635 whole entry): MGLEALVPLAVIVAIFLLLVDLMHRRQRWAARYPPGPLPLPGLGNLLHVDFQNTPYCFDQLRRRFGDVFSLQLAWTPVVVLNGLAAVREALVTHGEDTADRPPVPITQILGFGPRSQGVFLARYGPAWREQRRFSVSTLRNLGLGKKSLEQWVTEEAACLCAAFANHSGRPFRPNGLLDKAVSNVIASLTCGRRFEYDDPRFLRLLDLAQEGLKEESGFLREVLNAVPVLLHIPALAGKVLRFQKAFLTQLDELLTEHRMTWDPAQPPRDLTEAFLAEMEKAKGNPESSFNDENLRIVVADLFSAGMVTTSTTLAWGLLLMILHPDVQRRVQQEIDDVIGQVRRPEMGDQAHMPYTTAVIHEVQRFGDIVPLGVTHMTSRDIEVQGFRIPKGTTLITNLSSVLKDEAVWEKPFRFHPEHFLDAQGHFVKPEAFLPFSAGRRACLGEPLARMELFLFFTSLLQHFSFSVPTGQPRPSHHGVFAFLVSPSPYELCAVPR
- assay-text: Inhibitory activity on CYP2D6 (human recombinant CYPs)
- Assay type: in vitro ADME
- run-conditions: human recombinant CYP2D6, substrate ethylene glycol ester of luciferin-6'-methyl ether, 37° C.; read-out: CYP 2D6 inhibition, IC50 value
pIC50: −log10 of the molar value.
measure-name: pIC50

{"columns": ["given-smiles", "measured"],
 "data": [
  ["Cc1noc(-c2ccc([C@H]3CN(c4nc(-c5ccncn5)cc(=O)n4C)CCO3)cc2)n1", "< 4.30"]
]}

###

- study-system: CYP2D6 (Homo sapiens, UniProt P10635)
- assay-text: Inhibitory activity on CYP2D6 (human recombinant CYPs)
- Format: in vitro ADME
- run-conditions: probe ethylene glycol ester of luciferin-6'-methyl ether; human recombinant CYP2D6, substrate ethylene glycol ester of luciferin-6'-methyl ether, 37° C.; read-out: CYP 2D6 inhibition, IC50 value
pIC50: −log10 of the molar value.
Known pIC50 of a selection of compounds

{"columns": ["compound", "study-system", "pIC50"],
 "data": [
  ["Cn1ccnc1-c1ccc(C2CN(c3nc(-c4ccncn4)cc(=O)n3C)CCO2)cc1 (stereo not drawn)", "CYP2D6 (Homo sapiens, UniProt P10635)", "< 4.30"],
  ["Cn1c(N2CCOC(c3nc(-c4ccccc4)no3)C2)nc(-c2ccncn2)cc1=O (stereo not drawn)", "CYP2D6 (Homo sapiens, UniProt P10635)", "< 4.30"],
  ["Cn1c(N2CCOC(c3noc(-c4ccccc4)n3)C2)nc(-c2ccncn2)cc1=O (stereo not drawn)", "CYP2D6 (Homo sapiens, UniProt P10635)", "< 4.60"]
]}
